Tested on: MDR1
TEST METHOD NOTES: in vitro
STUDY CONDITIONS: dog, MDCK-MDR1
Description: Efflux ratio of permeability from apical to basolateral over basolateral to apical side in MDCK cells over expressing MDR1
VALUE KIND: efflux ratio
One number for each entry.

In the examples that follow, each entry is paired with its recorded efflux ratio.
CC(C)CN(C(=O)c1cccc(Cl)c1Cl)[C@H]1CCNC1 : 2.7
O=C(c1cccc(Cl)c1Cl)N(C1=CCOC=C1)[C@H]1CCNC1 : 20

// next entry
efflux ratio reading for CC(C)C(=O)N(Cc1cccc(Cl)c1Cl)[C@H]1CCNC1 : 4.3

----------
Give measured log10 of Ki for each item. Keep answers brief.
TARGET SYSTEM: Sodium-dependent serotonin transporter (Homo sapiens, UniProt P31645)
Sequence (P31645 whole entry): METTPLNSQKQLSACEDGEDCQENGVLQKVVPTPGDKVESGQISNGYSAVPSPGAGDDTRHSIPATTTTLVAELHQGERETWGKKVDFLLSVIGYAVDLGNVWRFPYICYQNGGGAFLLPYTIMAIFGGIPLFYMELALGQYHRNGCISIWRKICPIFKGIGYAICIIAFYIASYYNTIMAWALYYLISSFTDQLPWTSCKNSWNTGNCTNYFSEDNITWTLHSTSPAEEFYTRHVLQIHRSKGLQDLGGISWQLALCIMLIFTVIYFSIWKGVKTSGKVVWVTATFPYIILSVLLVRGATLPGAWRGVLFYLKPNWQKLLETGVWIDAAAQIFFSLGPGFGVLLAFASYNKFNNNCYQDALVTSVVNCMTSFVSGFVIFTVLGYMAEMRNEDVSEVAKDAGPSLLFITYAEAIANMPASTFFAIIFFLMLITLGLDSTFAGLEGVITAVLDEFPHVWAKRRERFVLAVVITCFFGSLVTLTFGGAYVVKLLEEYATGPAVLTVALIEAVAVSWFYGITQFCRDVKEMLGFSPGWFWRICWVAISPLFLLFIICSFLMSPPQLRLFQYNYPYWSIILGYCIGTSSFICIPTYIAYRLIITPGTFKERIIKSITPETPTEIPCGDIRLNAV
Please keep in mind that the values are log10 of Ki expressed in nM.

CC(C)CN(C(=O)c1cccc(Cl)c1Cl)[C@@H]1CCNC1 : 1.11

State the recorded log10 of Ki for every item in the following list.
1. CC(C)CN(C(=O)c1cccc(Cl)c1)[C@H]1CCNC1
2. O=C(c1cccc(Cl)c1Cl)N(c1ccccc1)[C@H]1CCNC1
3. CC(C)CN(C(=O)c1cccc(F)c1C(F)(F)F)[C@H]1CCNC1
4. CC(C)CN(C(=O)c1cccc(C(F)(F)F)c1Cl)[C@H]1CCNC1
5. O=C(c1cccc(Cl)c1Cl)N(CC(F)(F)F)[C@H]1CCNC1
6. CCN(C(=O)c1cccc(Cl)c1Cl)[C@H]1CCNC1
7. CC(C)CN(C(=O)c1cccc(Cl)c1Cl)[C@H]1CCNC1

Result:
1. 1.28
2. 0.48
3. 1.40
4. 1.04
5. 1.59
6. 1.46
7. 0.78

State the recorded log10 of Ki for every item in the following list.
1. O=C(c1cccc(Cl)c1Cl)N(C1CCCC1)[C@H]1CCNC1
2. CC(C)CN(C(=O)c1cccc(Cl)c1F)[C@H]1CCNC1
3. CC(C)(C)CN(C(=O)c1cccc(Cl)c1Cl)[C@H]1CCNC1

Result:
1: 0.78; 2: 1.00; 3: 0.60

----------
TARGET SYSTEM: Sodium-dependent noradrenaline transporter (Homo sapiens)
pKi: −log10 of the molar value.
pKi below 7 gives Not fulfilled; pKi at or above it gives Fulfilled.

CCN(C(=O)c1cccc(Cl)c1Cl)[C@H]1CCNC1 : Not fulfilled
CC(C)CN(C(=O)c1cccc(Cl)c1Cl)[C@H]1CCNC1 : Fulfilled
CC(C)CN(C(=O)c1cccc(Cl)c1Cl)[C@@H]1CCNC1 : Not fulfilled
O=C(c1cccc(Cl)c1Cl)N(C1=CCOC=C1)[C@H]1CCNC1 : Fulfilled
O=C(c1cccc(Cl)c1Cl)N(c1ccccc1)[C@H]1CCNC1 : Fulfilled

Request: Is pKi at least 7? Consider CCCN(C(=O)c1cccc(Cl)c1Cl)[C@H]1CCNC1
Result: Fulfilled

Request: Is pKi at least 7? Consider O=C(c1cccc(Cl)c1Cl)N(C1CCCC1)[C@H]1CCNC1
Result: Fulfilled

Request: Is pKi at least 7? Consider O=C(c1cccc(Cl)c1Cl)N(CCC1CC1)[C@H]1CCNC1
Result: Fulfilled

----------
The next entries give measured pKi for UniProt:Q01959.
Sequence (Q01959 whole entry): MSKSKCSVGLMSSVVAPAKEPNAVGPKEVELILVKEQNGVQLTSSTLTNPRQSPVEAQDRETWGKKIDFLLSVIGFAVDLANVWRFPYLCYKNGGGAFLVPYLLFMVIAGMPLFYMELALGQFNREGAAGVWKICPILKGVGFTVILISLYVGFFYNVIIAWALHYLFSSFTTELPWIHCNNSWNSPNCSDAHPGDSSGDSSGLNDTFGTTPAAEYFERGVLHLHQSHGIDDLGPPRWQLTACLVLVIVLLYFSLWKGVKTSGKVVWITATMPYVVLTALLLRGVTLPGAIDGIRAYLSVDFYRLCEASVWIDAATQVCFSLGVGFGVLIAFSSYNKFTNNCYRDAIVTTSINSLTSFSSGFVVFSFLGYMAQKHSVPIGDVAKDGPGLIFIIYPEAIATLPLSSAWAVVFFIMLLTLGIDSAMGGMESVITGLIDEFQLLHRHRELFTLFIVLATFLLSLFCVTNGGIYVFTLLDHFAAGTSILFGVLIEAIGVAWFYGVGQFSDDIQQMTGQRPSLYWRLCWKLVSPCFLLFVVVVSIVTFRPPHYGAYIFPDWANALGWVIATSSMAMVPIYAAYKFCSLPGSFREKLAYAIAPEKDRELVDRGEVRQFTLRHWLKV
Numbers only, as −log10 of the molar value.

In the examples that follow, each entry is paired with its recorded pKi.
CC(C)CN(C(=O)c1cccc(Cl)c1Cl)[C@H]1CCNC1 : 6.26
O=C(c1cccc(Cl)c1Cl)N(c1ccccc1)[C@H]1CCNC1 : 6.30
CC(C)(C)CN(C(=O)c1cccc(Cl)c1Cl)[C@H]1CCNC1 : 6.56
O=C(c1cccc(Cl)c1Cl)N(C1=CCOC=C1)[C@H]1CCNC1 : 6.02
CC(C)CN(C(=O)c1cccc(Cl)c1)[C@H]1CCNC1 : 5.88

State the recorded pKi for every item in the following list.
1. O=C(c1cccc(Cl)c1Cl)N(C1CCCC1)[C@H]1CCNC1
2. CC(C)CN(C(=O)c1ccc(F)cc1Cl)[C@H]1CCNC1

Result:
1. 6.01
2. 5.60

pKi reading for CC(C)CN(C(=O)c1cccc(Cl)c1Cl)[C@@H]1CCNC1 : 5.51

----------
TEST METHOD NOTES: Binding affinity to sigma opioid receptor
VALUE KIND: pIC50
Give bare numbers, as −log10 of the molar value.

pIC50 reading for CC(C)CN(C(=O)c1cccc(Cl)c1Cl)[C@H]1CCNC1 : 5.29

----------
TARGET SYSTEM: UniProtKB P41145
Sequence (P41145 whole entry): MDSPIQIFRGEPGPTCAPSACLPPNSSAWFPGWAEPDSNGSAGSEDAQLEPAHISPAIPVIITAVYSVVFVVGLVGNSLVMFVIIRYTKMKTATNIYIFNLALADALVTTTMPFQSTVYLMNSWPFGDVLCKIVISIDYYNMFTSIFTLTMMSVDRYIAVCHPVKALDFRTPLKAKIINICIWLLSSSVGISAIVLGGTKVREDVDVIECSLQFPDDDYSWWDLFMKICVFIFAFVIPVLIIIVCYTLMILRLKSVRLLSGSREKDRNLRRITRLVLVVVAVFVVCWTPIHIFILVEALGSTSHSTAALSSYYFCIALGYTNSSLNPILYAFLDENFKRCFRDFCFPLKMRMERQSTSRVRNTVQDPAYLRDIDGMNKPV
VALUE KIND: pIC50
Give bare numbers, as −log10 of the molar value.

pIC50 reading for CC(C)CN(C(=O)c1cccc(Cl)c1Cl)[C@H]1CCNC1 : 5.24

----------
Tested on: MDR1
TEST METHOD NOTES: Permeability from basolateral to apical side of MDCK cells over expressing MDR1
Format: ADME, cell-based, Canis lupus familiaris
STUDY CONDITIONS: dog
Give measured Papp B→A for each item. Keep answers brief.
Give bare numbers, in ×10⁻⁶ cm/s.

CC(C)C(=O)N(Cc1cccc(Cl)c1Cl)[C@H]1CCNC1 : 64
O=C(c1cccc(Cl)c1Cl)N(C1CCCC1)[C@H]1CCNC1 : 64
CC(C)CN(C(=O)c1cccc(Cl)c1Cl)[C@H]1CCNC1 : 43

# value of Papp B→A, MDR1, item O=C(c1cccc(Cl)c1Cl)N(C1=CCOC=C1)[C@H]1CCNC1 = 20

----------
TEST METHOD NOTES: in vitro
STUDY CONDITIONS: human, liver microsomes
Description: Intrinsic clearance in human liver microsomes
VALUE KIND: microsomal CLint (µL/min/mg)
One number for each entry, in µL/min/mg.

State the recorded microsomal CLint for every item in the following list.
1. CC(C)CN(C(=O)c1ccc(F)cc1Cl)[C@H]1CCNC1
2. CC(C)CN(C(=O)c1cccc(F)c1Cl)[C@H]1CCNC1

Result:
20
20

State the recorded microsomal CLint for every item in the following list.
1. CC(C)CN(C(=O)c1ccc(Cl)cc1Cl)[C@H]1CCNC1
2. Cc1c(Cl)cccc1C(=O)N(CC(C)C)[C@H]1CCNC1

Result:
1. 26
2. 26

----------
TARGET SYSTEM: Sodium-dependent noradrenaline transporter (Homo sapiens, UniProt P23975)
Sequence (P23975 whole entry): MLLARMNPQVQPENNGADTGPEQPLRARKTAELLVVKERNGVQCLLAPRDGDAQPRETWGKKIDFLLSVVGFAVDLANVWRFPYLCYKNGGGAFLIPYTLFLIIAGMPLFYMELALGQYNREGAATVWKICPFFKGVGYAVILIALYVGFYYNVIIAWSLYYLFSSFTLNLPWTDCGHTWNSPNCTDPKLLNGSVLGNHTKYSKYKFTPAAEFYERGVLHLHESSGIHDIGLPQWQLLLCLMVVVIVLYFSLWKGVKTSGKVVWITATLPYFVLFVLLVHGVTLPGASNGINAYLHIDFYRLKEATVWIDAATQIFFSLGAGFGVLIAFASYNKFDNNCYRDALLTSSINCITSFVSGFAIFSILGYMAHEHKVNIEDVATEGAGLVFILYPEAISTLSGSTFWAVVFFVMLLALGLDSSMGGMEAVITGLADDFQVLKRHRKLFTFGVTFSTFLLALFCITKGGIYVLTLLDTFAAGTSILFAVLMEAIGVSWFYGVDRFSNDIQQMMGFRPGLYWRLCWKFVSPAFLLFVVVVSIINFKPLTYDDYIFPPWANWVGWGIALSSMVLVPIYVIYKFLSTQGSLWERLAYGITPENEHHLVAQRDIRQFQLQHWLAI
VALUE KIND: Ki

In the examples that follow, each entry is paired with its recorded Ki.
CC(C)CN(C(=O)c1cccc(C(F)(F)F)c1Cl)[C@H]1CCNC1 : 103 nM
CC(C)CN(C(=O)c1cccc(Cl)c1)[C@H]1CCNC1 : 135 nM

Ki reading for Cc1c(F)cccc1C(=O)N(CC(C)C)[C@H]1CCNC1 : 69 nM
